- Tested on: MS2 coat protein
- assay procedure: apparent KD of MS2 coat protein; designed switch direction (-1 OFF switch, 1 ON switch): 1; higher = weaker reporter binding
- condition: input ligand: FMN 200 uM
reported property: apparent KD of MS2 coat protein (nM)
Answer in nM, number only, no unit symbol.

Sample answers from the record:
input sequence: CCAAUGUACAAUUUAGAUCUACAUGAGGAUCACCCAUGUACAGAGGAUAUCAGCUCGAUUAGAGCUGAGAAGGCUGAAUUAAUU [SSNG3/3-A2] (Eterna round: R96, puzzle: Same State NG 3)
apparent KD of MS2 coat protein, nM: 137

input sequence: AAUUGUUCCUGAGGAUAUCAGUAGUUUGCUUUUUGAGAAGGCAGUACAUGAGGAUCACCCAUGUUGUGGUUUGAUAGAAUGAUA [JR_SSNG1_Sub005] (Eterna round: R96, puzzle: Same State NG 1)
apparent KD of MS2 coat protein, nM: 184

// below: apparent KD of MS2 coat protein requested for another sequence
Bench note, MS2 coat protein: GCUACCAUAGAAGCCAACAUGAGGAUCACCCAUGUAUGUUGGUAGGAUAUCGAUUGCAAAGCGAUCGAGAAGGGCUAAGGUAGC [Mat - Same State NG 3 - JL Mod - D83] (Eterna round: R96, puzzle: Same State NG 3) , apparent KD of MS2 coat protein reads 164

----------
Overview of recorded apparent KD of K4 kissing-loop reporter for various sequences
- System: K4 kissing-loop RNA reporter
- assay procedure: apparent KD of K4 kissing-loop reporter; higher = weaker reporter binding
- condition: Eterna round: R107; input ligand: arginine 13.2 mM
Report the figure in µM without appending any unit label.

Examples from the recorded data:
input sequence: GGUCCGGGCUCGGCCGCCACUCCCUCGUACCGCAAGGUAUGAUACCGAGUGAUGUUCGGUUGGAGGAGGACCGGGAGCCCGGACC [#2 Exclusion - Tryptophan B Attempt #9 (HarryS)]
system under test: K4 kissing-loop RNA reporter
reported: 0.11
--
input sequence: AGGUCCGAGCCCGCAAGGGCUCGGACCUGUUAGGAUAUGACGUUAUUCAGAAGGGAUGGGUGGAGUGAUGUUCCACCCGCGAGGG [#2 Same State - FMN A Attempt #12 (HarryS)]
system under test: K4 kissing-loop RNA reporter
reported: 0.131

Attention now shifts to the item below.
apparent KD of K4 kissing-loop reporter recorded for this sequence, GGGAGUAGUGCGGCCGCCACUGAGAAAGAAGAAGAAUAUAGUGAUGUUAUAUAGGAAUAAAAGAAUAGGACCGGGCAUUAGAUUU [SSTRyptB.S] , is 0.245

----------
This listing pairs sequences with measured apparent KD of K4 kissing-loop reporter.
- Tested on: K4 kissing-loop RNA reporter;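 also: bound reporter read as fluorescence of individual clusters on recovered sequencing chips by microscopy, with normalized cluster intensities fitted with a binding model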
- assay procedure: apparent KD of K4 kissing-loop reporter; higher = weaker reporter binding
- condition: Eterna round: R107; input ligand: arginine 13.2 mM
Quick note: give the figure in µM, leave out the unit.

So the reported apparent KD of K4 kissing-loop reporter for UGUCAUUGGUCGGCCGCCACUAGGACCGGGUUUUACCUAGUGAUGUUAGUAUAAACGGCCGCCACUAGGACCGGGACCGAUGACU [KL-SSTryp-B24 #DoubleAptamer] , on K4 kissing-loop RNA reporter, turned out to be 0.447

----------
- Test system: MS2 coat protein
- assay procedure: apparent KD of MS2 coat protein; designed switch direction (-1 OFF switch, 1 ON switch): -1; higher = weaker reporter binding
- condition: Eterna round: R95; input ligand: FMN 200 uM
Each entry below lists one item and its recorded apparent KD of MS2 coat protein value.
Return type: number; implicit unit nM.

input sequence: CUGAGCAGACGGAGAUCCCACAUGAGGAUCACCCAUGUCUCAAAAGCUUUUUGCUUGUCUUAUUCUCCUCUGUUCUC [Arorza] (puzzle: Sensor v3, turn-off variant 1)
apparent KD of MS2 coat protein (nM): 13.9

input sequence: AGUACUAUCACGAAAGUGAUAGUACAAUAAACAAGUGAAACAUGAGGAUCACCCAUGUCCUCAUUUGCUCGUCUUAU [Sensor 3 - 1] (puzzle: Sensor v3, turn-off variant 2)
apparent KD of MS2 coat protein (nM): 146

Now take the following sequence into account.
Value of measured apparent KD of MS2 coat protein for the entry AGUACUAACACGCGUGUGUUAGUACAAUAAGCUUGUGAAACAUGAGGAUCACCCAUGUCCUCAUAAGCUCGUCUUAU [salish99_TOv2_r3_076] (puzzle: Sensor v3, turn-off variant 2) : 15.7

----------
- Tested on: MS2 coat protein
- assay procedure: apparent KD of MS2 coat protein; designed switch direction (-1 OFF switch, 1 ON switch): 1; higher = weaker reporter binding
- condition: input ligand: FMN 200 uM
// label = criterion met if apparent KD of MS2 coat protein is not less than 100 nM, otherwise criterion not met

Consider the worked cases shown below.
input sequence: ACAUGAGAGAUAGGAUAUGCUGUACCUACAUGUGACAUGAGGAUCACCCAUGUGGUAAGUAUGAGGCAGAAGGAUCAGAUAUGU [Equivalence 49 - Jieux - Same State NG 2] (Eterna round: R96, puzzle: Same State NG 2)
answer label: criterion not met
--
input sequence: UCUAUUGUGGUAGGAUAUCUAGGAUAUGGGAAGAGCUAAGCUUGGAAGUCACUUCACCCAGAAGGAGAGAAGGACCAGAGACUU [pwkr ssNG2 2FMN + F9.7] (Eterna round: R96, puzzle: Same State NG 2)
answer label: criterion met
--
input sequence: UACAAACGCGGAGGAUAUGGGCGAGGCGCAGAGGUCUGCGUCAAAACAUGAGGAUCACCCAUGUCCCAGAAGGCCGCGCAAACU [Anorra] (Eterna round: R96, puzzle: Same State NG 2)
answer label: criterion not met

Incoming: Is reported apparent KD of MS2 coat protein greater than or equal to 100 nM here: AUUUUGAAUGCAGGAUAUGAUUAACAUGAGGAUCACCCAUGUGGUGUUGUGAGUAAGGAGAGUGAUCAGAAGGGCAUUUUUUUU [JMF's solution 96] (Eterna round: R96, puzzle: Same State NG 2)
Outgoing: criterion met

Incoming: Given the entry GCCGCGUUUCGCGCCUACAUGAGGAUCACCCAUGUUUGUAGGCAGGAUAUCGUUUGCUUUGCAGGCGAGAAGGGCUGUUGUGGC [salish99_SSNG3_R04_016] (Eterna round: R96, puzzle: Same State NG 3) , answer whether its apparent KD of MS2 coat protein meets or surpasses 100 nM.
Outgoing: criterion not met

Incoming: Assess whether reported apparent KD of MS2 coat protein for GUGGUCAGACAUGAGGAUCACCCAUGUGGAAUAAAUAAGGAGAAGGAUAUCGAAUAUAGGAUAUACGAGAAGGUUUGGUUGGUG (Eterna round: R96, puzzle: Same State NG 3) sits at 100 nM or higher.
Outgoing: criterion met

Incoming: Tell me whether apparent KD of MS2 coat protein is at least 100 nM here: GCCGCGUUUCACGCCUACAUGAGGAUCACCCAUGUAUGUAGGCAGGAUAUCGUUUGCUUUGCAAACGAGAAGGGCUGUAGUGGC [salish99_SSNG3_R04_007] (Eterna round: R96, puzzle: Same State NG 3)
Outgoing: criterion not met

Incoming: # bool: apparent KD of MS2 coat protein of CGUCGUUUGAUAGGAUAUCGCUAUACAUGAGGAUCACCCAUGUUUACCACGCUGGUUUUUCAUACCGAGAAGGAUUCUGAUGUU [salish99_SSNG02_r04_016] (Eterna round: R96, puzzle: Same State NG 2) >= 100 nM
Outgoing: criterion not met

----------
Measured apparent KD of MS2 coat protein of individual entries
- Test system: MS2 coat protein
- assay procedure: apparent KD of MS2 coat protein; designed switch direction (-1 OFF switch, 1 ON switch): -1; higher = weaker reporter binding
- condition: Eterna round: R95; input ligand: none
Numeric only. Scale: µM

input sequence: AAGAAACAUGAGGAUCACCCAUGUGAGGAUAUGACAAAGAAAAGAAAAGAAAGAAGACUCAGAAGGCACAAAGG [salish99-ex1_r3_039] (puzzle: Exclusion 1)
system under test: MS2 coat protein
apparent KD of MS2 coat protein (µM): 0.052
--
input sequence: CAUAUAGUAGUCAGGAUAUGCGAAUAUAUAAUUAAGUAGAAGGGACAUGAGGAUCACCCAUGUAUAUUGUAAAG [EX-4 Malc #2] (puzzle: Brourd's mod of Exclusion 4)
system under test: MS2 coat protein
apparent KD of MS2 coat protein (µM): 0.0284
--
input sequence: AAUAAUAAGGAGGAUAUCGUAUGCGAAAGCAUACGAGAAGGCCUAACAUGAGGAUCACCCAUGUUCCUCAAUAA [Mat - Exclusion 6 - Eli Mod - D55] (puzzle: Exclusion 6)
system under test: MS2 coat protein
apparent KD of MS2 coat protein (µM): 0.259
--
input sequence: UUUAAAACAUAGGAUAUCGAAAAUAUCAUUUAACGAGAAGGAUGAACAUGAGGAUCACCCAUGUGGUAUCAUGG [Mat - Exclusion 6 - JL Mod - D16] (puzzle: Exclusion 6)
system under test: MS2 coat protein
apparent KD of MS2 coat protein (µM): 0.313

Now for the sequence whose apparent KD of MS2 coat protein we want.
Measured apparent KD of MS2 coat protein, ACUUAUAGAGGAUAUACAGUUUAUUACAUGAGGAUCACCCAUGUUCUUCAAUGUAUAUAAGUAGAAGGCUAAGGAA [EX-5 Malc#5] (puzzle: Exclusion 5) : 0.03
